Please provide measured IC50 for the entries that follow.
# Tested on: Hela cells
# experimentalDetails: Cytological evaluation in rhIFN-γ stimulated Hela cells
# Assay type: cell-based
# conditionContext: rhIFN-γ 50 ng/ml, 24 hours; read-out: Hela Cell IC50
Value expressed in nM; do not type the unit.

[in] Quick one: IC50 of [2H]C1([2H])CC(Nc2nonc2C(=NO)Nc2ccc(F)c(Br)c2)CC([2H])([2H])S1(=O)=O [Crystal Form B of Compound 1] ?
[out] 30

[in] Fill in: IC50 of [2H]C1([2H])CC(Nc2nonc2C(=NO)Nc2ccc(F)c(Br)c2)CC([2H])([2H])S1(=O)=O [Compound 1] is ___
[out] 99.7

[in] Query: IC50; subject: [2H]C1([2H])CC(Nc2nonc2C(=NO)Nc2ccc(F)c(Br)c2)CC([2H])([2H])S1(=O)=O [Crystal Form A of Compound 1]
[out] 40
